Give measured absorbance at 405 nm for each item. Keep answers brief.
System: gum arabic
Assay: VHH binding to gum arabic in ELISA
Set-up: species or system acacia tree
Settings: [VHH] 0.1875 μg/ml (12.5 nM); gum arabic 100 μg/ml

Worked examples follow.
MOLECULE | absorbance at 405 nm
VHH7A2: plant-binding VHH, listed among SEQ ID NO:1-42 (protein, listed as Lama glama, 7A2) VHH: QVQLQESGGGSVHPGGSLTLSCLASGFSLSNYGMGWFRQAPGKEREAVSCTSVPNGHIYYAESVKGRFTIVRDNAGNSVYLQMNSLKPEDAANYFCATTDCEAAHWGTWVNYYGQGTQVTVSS | 0.216
VHH7C2: plant-binding VHH, listed among SEQ ID NO:1-42 (protein, listed as Lama glama, 7C2) VHH: QVQLQESGGGLVQPGGSLRLSCAAFGFALANYGIGWFRQAPGKDRERVSCDSVDDGSTHYSNSVQGRFTIIRDNAKNTVFLQMNSLKAEDTAVYYCATTDCDATTWGTWINYRGQGTQVTVSS | 0.090
VHH 5C4 (VHH, Hexahistidine-tagged) VHH: QVQLQESGGGLVQPGGSLRLSCAASGFSLRYFGIGWFRQVAGKEREPVSCSNVRDGNTYYADSVKGRFTISRDNVRNTLYLQMNSLKPEDTAVYSCATTDCEATTWGTYRGYFGQGTQVTVSS | 1.036

input: Tell me the measured absorbance at 405 nm of VHH 5G5 (VHH, Hexahistidine-tagged) VHH: QVQLQESGGGLVQPGGSLRLSCAASGFSLRYFGIGWFRQAAGKEREGISCSNVRDGNTYYADSVKGRFTISRDNVRNMLYLQMNNLKPDDTAVYSCATTDCEATTWGTYRGYFGQGTQVTVSS , please.
output: 0.906
